Data provenance is ChEMBL document CHEMBL2331322.

Tested on: Bacillus subtilis
Assay explanation: Antimicrobial activity against Bacillus subtilis at 1 mg/mL after 24 hrs by agar disc diffusion method
Assay type: functional
Experimental conditions: read-out: DIZ
Observation type: zone of inhibition at 1000 µg/mL (mm)
Numbers only, in mm.

| Compound | Test system | Measurement unit | Endpoint result |
| --- | --- | --- | --- |
| CCOC(=O)c1c2[nH]c(=N)c3ccccc3c2nn1-c1ccccc1 | Bacillus subtilis | mm | 33 |
| N#Cc1ccccc1C(C#N)/N=N/c1ccccc1 (stereo unspecified) | Bacillus subtilis | mm | 37 |
| COc1ccc(/N=N/C(C(N)=O)c2ccccc2C#N)cc1 (stereo unspecified) | Bacillus subtilis | mm | 32 |
| N=c1[nH]c2nn(-c3ccc([N+](=O)[O-])cc3)nc2c2ccccc12 | Bacillus subtilis | mm | 38 |
| N#Cc1ccccc1C(/N=N/c1ccc([N+](=O)[O-])cc1)C(N)=O (stereo unspecified) | Bacillus subtilis | mm | 33 |
| Cc1ccc(/N=N/C(C(N)=O)c2ccccc2C#N)cc1 (stereo unspecified) | Bacillus subtilis | mm | 31 |
| N=c1[nH]c2nn(-c3ccccc3)nc2c2ccccc12 | Bacillus subtilis | mm | 33 |
| COc1ccc(-n2nc3[nH]c(=N)c4ccccc4c3n2)cc1 | Bacillus subtilis | mm | 33 |
| CCOC(=O)c1c2[nH]c(=N)c3ccccc3c2nn1-c1ccc([N+](=O)[O-])cc1 | Bacillus subtilis | mm | 38 |
| CCOC(=O)c1c2[nH]c(=N)c3ccccc3c2nn1-c1ccc(Cl)cc1 | Bacillus subtilis | mm | 33 |

What reported zone of inhibition at 1000 µg/mL corresponds to COc1ccc(/N=N/C(C#N)c2ccccc2C#N)cc1 (stereo unspecified) on Bacillus subtilis?
39

----------
Give measured MIC for each item. Keep answers brief.
Tested on: Bacillus thuringiensis
Assay explanation: Antimicrobial activity against Bacillus thuringiensis after 24 hrs by microdilution susceptibility test
Format: functional
Give bare numbers, in µg/mL.

Some molecules with recorded MIC:
| Molecule | Test system | MIC [µg/mL] |
| --- | --- | --- |
| Cc1ccc(/N=N/C(C(N)=O)c2ccccc2C#N)cc1 (stereo not drawn) | Bacillus thuringiensis | 50 |
| CCOC(=O)c1c2[nH]c(=N)c3ccccc3c2nn1-c1ccc(C)cc1 | Bacillus thuringiensis | 50 |
| COc1ccc(-n2nc3[nH]c(=N)c4ccccc4c3n2)cc1 | Bacillus thuringiensis | 50 |

# per-item lookup of MIC; items listed below
1. N#CCc1ccccc1C#N
2. COc1ccc(/N=N/C(C(N)=O)c2ccccc2C#N)cc1 (stereo not drawn)

1. 50
2. 12.5

Look up MIC for the entries below, preserving their order.
1. Cc1ccc(/N=N/C(C#N)c2ccccc2C#N)cc1 (stereo not drawn)
2. COc1cc(/C=C(\C#N)c2ccccc2C#N)cc(OC)c1OC
3. N=c1[nH]c2nn(-c3ccccc3)nc2c2ccccc12
4. CCOC(=O)c1c2[nH]c(=N)c3ccccc3c2nn1-c1ccc(Cl)cc1

1. 25
2. 100
3. 25
4. 50

Please give MIC, item by item, for the list that follows.
1. Cc1ccc(-n2nc3[nH]c(=N)c4ccccc4c3n2)cc1
2. N#Cc1ccccc1C(C#N)/N=N/c1ccccc1 (stereo not drawn)
3. N#C/C(=C\c1ccc(Cl)cc1)c1ccccc1C#N
4. CCOC(=O)c1c2[nH]c(=N)c3ccccc3c2nn1-c1ccc(OC)cc1
5. N#Cc1ccccc1C(/N=N/c1ccc([N+](=O)[O-])cc1)C(N)=O (stereo not drawn)
6. N#Cc1ccccc1C(C#N)/N=N/c1ccc(Cl)cc1 (stereo not drawn)

[50, 25, 50, 25, 12.5, 6.25]

----------
Test system: Escherichia coli
Assay explanation: Antimicrobial activity against Escherichia coli after 24 hrs by microdilution susceptibility test
Type: functional
I'd appreciate it if you could supply MBC values for the items below.
Hey, just the number and the unit after it is fine.

| Compound | Endpoint result |
| --- | --- |
| COc1cc(-c2c(C#N)c(N)c3ccccc3c2C#N)cc(OC)c1OC | 200 µg/mL |
| Cc1ccc(/N=N/C(C(N)=O)c2ccccc2C#N)cc1 (stereo unspecified) | 200 µg/mL |
| CCOC(=O)c1c2[nH]c(=N)c3ccccc3c2nn1-c1ccc(Cl)cc1 | 200 µg/mL |

Parameter requested: MBC. Apply to each item below.
1. CCOC(=O)c1c2[nH]c(=N)c3ccccc3c2nn1-c1ccc(OC)cc1
2. COc1cc(/C=C(\C#N)c2ccccc2C#N)cc(OC)c1OC
3. N#Cc1ccccc1C(/N=N/c1ccc([N+](=O)[O-])cc1)C(N)=O (stereo unspecified)
4. N#CC1c2ccccc2C(=N)C(C#N)(C#N)C1c1ccc(Cl)cc1 (stereo unspecified)
5. N#Cc1ccccc1C(C#N)/N=N/c1ccc([N+](=O)[O-])cc1 (stereo unspecified)
6. COc1ccc(/N=N/C(C#N)c2ccccc2C#N)cc1 (stereo unspecified)
7. CCOC(=O)c1c2[nH]c(=N)c3ccccc3c2nn1-c1ccccc1
8. CCOC(=O)c1c2[nH]c(=N)c3ccccc3c2nn1-c1ccc(C)cc1

["200 µg/mL", "200 µg/mL", "200 µg/mL", "200 µg/mL", "100 µg/mL", "50 µg/mL", "200 µg/mL", "200 µg/mL"]

----------
Test system: Escherichia coli
Assay explanation: Antimicrobial activity against Escherichia coli after 24 hrs by microdilution susceptibility test
Format: functional
Observation type: MBC
Please don't drop the unit; write it after the number.

Please review the entries below; each comes with its answer.
| Molecule | Test system | Endpoint result |
| --- | --- | --- |
| N#CCc1ccccc1C#N | Escherichia coli | 200 µg/mL |
| COc1ccc(/N=N/C(C(N)=O)c2ccccc2C#N)cc1 (stereo unspecified) | Escherichia coli | 100 µg/mL |
| COc1ccc(-n2nc3[nH]c(=N)c4ccccc4c3n2)cc1 | Escherichia coli | 200 µg/mL |
| COc1ccc(C2C(C#N)c3ccccc3C(=N)C2(C#N)C#N)cc1 (stereo unspecified) | Escherichia coli | 200 µg/mL |
| CC1(C)S[C@@H]2[C@H](NC(=O)[C@H](N)c3ccccc3)C(=O)N2[C@H]1C(=O)O | Escherichia coli | 25 µg/mL |
| N#Cc1ccccc1C(/N=N/c1ccccc1)C(N)=O (stereo unspecified) | Escherichia coli | 200 µg/mL |
| CCOC(=O)c1c2[nH]c(=N)c3ccccc3c2nn1-c1ccc([N+](=O)[O-])cc1 | Escherichia coli | 200 µg/mL |
| Cc1ccc(/N=N/C(C#N)c2ccccc2C#N)cc1 (stereo unspecified) | Escherichia coli | 200 µg/mL |

Look up MBC for the entries below, preserving their order.
1. N#Cc1ccccc1C(C#N)/N=N/c1ccc(Cl)cc1 (stereo unspecified)
2. N=c1[nH]c2nn(-c3ccccc3)nc2c2ccccc12
3. N#Cc1ccccc1C(/N=N/c1ccc(Cl)cc1)C(N)=O (stereo unspecified)

1: 200 µg/mL; 2: 200 µg/mL; 3: 100 µg/mL

----------
System: Bacillus subtilis
Assay explanation: Antimicrobial activity against Bacillus subtilis at 1 mg/mL after 24 hrs by agar disc diffusion method
Format: functional
Experimental conditions: read-out: DIZ
Please go through the items and note down their zone of inhibition at 1000 µg/mL.
A complete answer gives the number and then names the unit.

Solved entries:
| Compound | zone of inhibition at 1000 µg/mL |
| --- | --- |
| CC1(C)S[C@@H]2[C@H](NC(=O)[C@H](N)c3ccccc3)C(=O)N2[C@H]1C(=O)O | 40 mm |
| COc1cc(/C=C(\C#N)c2ccccc2C#N)cc(OC)c1OC | 20 mm |
| N=c1[nH]c2nn(-c3ccc(Cl)cc3)nc2c2ccccc12 | 32 mm |
| N#Cc1ccccc1C(C#N)/N=N/c1ccc(Cl)cc1 (stereo not given) | 42 mm |

API: the following record is the query input.
Entry N#Cc1ccccc1C(/N=N/c1ccc(Cl)cc1)C(N)=O (stereo not given) : reported zone of inhibition at 1000 µg/mL = ?
38 mm

----------
Tested on: Bacillus subtilis
Assay explanation: Antimicrobial activity against Bacillus subtilis after 24 hrs by microdilution susceptibility test
Assay type: functional
Provide the reported MIC of each item.
Answers are plain numbers, in µg/mL.

Worked examples follow.
| Compound | MIC, µg/mL |
| --- | --- |
| CCOC(=O)c1c2[nH]c(=N)c3ccccc3c2nn1-c1ccc(OC)cc1 | 50 |
| COc1ccc(C2C(C#N)c3ccccc3C(=N)C2(C#N)C#N)cc1 (stereo not drawn) | 100 |
| Cc1ccc(-n2nc3[nH]c(=N)c4ccccc4c3n2)cc1 | 50 |
| N#Cc1ccccc1C(C#N)/N=N/c1ccc([N+](=O)[O-])cc1 (stereo not drawn) | 3.12 |
| COc1ccc(/N=N/C(C(N)=O)c2ccccc2C#N)cc1 (stereo not drawn) | 25 |

Give MIC for all compounds that follow.
1. N#Cc1ccccc1C(C#N)/N=N/c1ccc(Cl)cc1 (stereo not drawn)
2. COc1ccc(-n2nc3[nH]c(=N)c4ccccc4c3n2)cc1
3. N#CC1c2ccccc2C(=N)C(C#N)(C#N)C1c1ccc(Cl)cc1 (stereo not drawn)

[3.12, 50, 50]
